Source of measurements: patent US20070178531A1

TARGET OF ASSAY: T1, glutathione S-transferase (GST) (UniProt P08515 1-218 = GST)
T1 construct: also called carrier protein GST
T1 sequence (P08515 whole entry): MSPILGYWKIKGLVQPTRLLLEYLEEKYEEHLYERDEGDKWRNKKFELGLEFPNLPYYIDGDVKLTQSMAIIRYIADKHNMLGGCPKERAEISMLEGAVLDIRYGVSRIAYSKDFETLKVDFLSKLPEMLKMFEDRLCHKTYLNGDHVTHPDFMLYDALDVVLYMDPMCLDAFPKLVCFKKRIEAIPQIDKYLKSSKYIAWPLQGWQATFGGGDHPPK
ASSAY: ELISA, Ab 0.050 µg/ml
MEASUREMENT NAME: A450 (A450)

[[record]]
binder = "rabbit monoclonal anti-mouse/human Id3, clone #BCH-4/#17-3 (antibody, V domains shown, Rabbit IgG from a rabbit hybridoma; also called m/h Id3 MoAb 17-3; BCH-3/#17-3) VH: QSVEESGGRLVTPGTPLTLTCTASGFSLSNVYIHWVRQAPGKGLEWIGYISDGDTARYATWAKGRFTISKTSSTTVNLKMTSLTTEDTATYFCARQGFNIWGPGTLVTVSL VL: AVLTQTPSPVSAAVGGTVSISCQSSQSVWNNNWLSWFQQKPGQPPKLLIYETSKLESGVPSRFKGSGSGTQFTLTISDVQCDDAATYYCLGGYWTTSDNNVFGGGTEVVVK"
measurement_name = "A450"
test_value = 0.046

[[record]]
binder = "rabbit monoclonal anti-mouse/human Id3, clone #BCH-4/#6-1 (antibody, V domains shown, Rabbit IgG from a rabbit hybridoma; also called m/h Id3 MoAb 6-1) VH: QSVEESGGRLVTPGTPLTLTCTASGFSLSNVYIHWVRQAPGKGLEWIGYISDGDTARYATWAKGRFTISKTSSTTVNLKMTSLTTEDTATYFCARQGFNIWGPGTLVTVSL VL: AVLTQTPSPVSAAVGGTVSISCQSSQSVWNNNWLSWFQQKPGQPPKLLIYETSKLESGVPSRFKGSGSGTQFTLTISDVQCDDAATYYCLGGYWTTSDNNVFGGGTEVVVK"
measurement_name = "A450"
test_value = 0.047

[[record]]
binder = "rabbit monoclonal anti-human Id3, clone #BCH-4/#3-3 (antibody, V domains shown, Rabbit IgG from a rabbit hybridoma; also called h Id3 MoAb 3-3) VH: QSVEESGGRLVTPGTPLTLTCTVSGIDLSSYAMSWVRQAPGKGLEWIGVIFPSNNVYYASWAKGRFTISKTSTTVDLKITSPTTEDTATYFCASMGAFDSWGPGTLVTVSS VL: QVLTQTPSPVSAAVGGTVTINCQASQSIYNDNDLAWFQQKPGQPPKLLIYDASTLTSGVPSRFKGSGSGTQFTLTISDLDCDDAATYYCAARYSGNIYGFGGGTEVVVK"
measurement_name = "A450"
test_value = 0.048

[[record]]
binder = "rabbit monoclonal anti-mouse/human Id3, clone #BCH-4/#16-1 (antibody, V domains shown, Rabbit IgG from a rabbit hybridoma; also called m/h Id3 MoAb 16-1) VH: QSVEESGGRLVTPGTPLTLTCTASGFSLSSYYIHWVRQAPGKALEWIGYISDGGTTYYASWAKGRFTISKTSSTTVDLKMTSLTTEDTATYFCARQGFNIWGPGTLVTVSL VL: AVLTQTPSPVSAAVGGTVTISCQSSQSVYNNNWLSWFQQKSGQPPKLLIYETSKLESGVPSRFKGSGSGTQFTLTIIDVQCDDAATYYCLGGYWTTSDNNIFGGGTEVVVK"
measurement_name = "A450"
test_value = 0.046

[[record]]
binder = "rabbit monoclonal anti-mouse/human Id3, clone #BCH-4/#42-1 (antibody, V domains shown, Rabbit IgG from a rabbit hybridoma; also called m/h Id3 MoAb 42-1) VH: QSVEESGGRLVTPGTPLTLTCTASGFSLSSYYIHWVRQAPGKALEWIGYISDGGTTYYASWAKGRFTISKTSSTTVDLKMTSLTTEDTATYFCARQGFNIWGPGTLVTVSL VL: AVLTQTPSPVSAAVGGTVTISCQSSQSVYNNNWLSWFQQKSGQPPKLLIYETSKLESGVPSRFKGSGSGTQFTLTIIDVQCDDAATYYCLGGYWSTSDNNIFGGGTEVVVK"
measurement_name = "A450"
test_value = 0.049

